Exercise: state measured activation at 0.1 µM for each of the compounds provided.
- system under test: glucocerebrosidase (Gcase) (Homo sapiens, UniProt P04062)
- Sequence (P04062 40-536): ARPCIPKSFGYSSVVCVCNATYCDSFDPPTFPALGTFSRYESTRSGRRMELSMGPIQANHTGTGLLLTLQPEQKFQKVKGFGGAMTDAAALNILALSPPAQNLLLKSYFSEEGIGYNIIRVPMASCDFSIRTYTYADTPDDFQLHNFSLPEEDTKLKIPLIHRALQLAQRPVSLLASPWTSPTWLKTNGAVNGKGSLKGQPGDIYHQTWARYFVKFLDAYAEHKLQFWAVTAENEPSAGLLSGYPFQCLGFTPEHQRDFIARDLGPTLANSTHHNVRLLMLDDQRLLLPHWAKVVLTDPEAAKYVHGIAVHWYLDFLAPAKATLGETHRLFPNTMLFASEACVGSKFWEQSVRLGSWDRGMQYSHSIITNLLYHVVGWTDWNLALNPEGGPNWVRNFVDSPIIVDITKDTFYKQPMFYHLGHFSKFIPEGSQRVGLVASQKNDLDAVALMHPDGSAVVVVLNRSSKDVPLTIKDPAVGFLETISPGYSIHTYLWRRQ
- experiment summary: Glucocerebrosidase (Gcase) activation assay, 4-methylumbelliferyl-beta-D-glucopyranoside substrate, with saposin C
- Type: biochemical
- reported conditions: 0.1 μM test compound; read-out: Percent Gcase Activation 0.1 μM Test Compound
- Protocol: The ability of exemplary compounds to activate glucocerebrosidase (Gcase) was measured. A 484 μL aliquot of a 1.0 mg/mL solution of phosphatidylserine (PS) (Sigma P7769) in chloroform was evaporated under a stream of nitrogen for 1 hour. The lipid film was dissolved over 4 minutes of vigorous vortexing in 40 mL of 176 mM K2HPO4/50 mM citric acid (pH 4.7) containing 7.5 μL of triton X-100, resulting in a mixed micellar preparation with a composition of 0.32 mM triton and 0.37 mol % PS. […]

Past entries and their recorded results:
{"compound": "Cc1cc(-c2ccc(F)cc2)nc2c(C(=O)N[C@@H](C)C3CCC3)ncn12", "result": "10 to 20%"}
{"compound": "Cc1cc(Oc2cccnc2)nc2c(C(=O)N[C@@H](C)C3CC3)ncn12", "result": "< 10%"}
{"compound": "CCOc1cccc(-c2cc(C)n3cnc(C(=O)N[C@@H](C)C4CC4)c3n2)n1", "result": "< 10%"}

Hi! Can you tell me activation at 0.1 µM for each of these compounds?
1. Cc1cc(-c2cccc(C#N)c2)nc2c(C(=O)N[C@@H](C)C3CC3)ncn12
2. Cc1cc(-c2ccnc(Cl)c2)nc2c(C(=O)N[C@@H](C)C3CC3)ncn12
3. Cc1cc(-c2cccc(F)c2)nc2c(C(=O)NC(C)(C)C)ncn12
4. Cc1cc(-c2cccc(C#N)c2)nc2c(C(=O)NC(C3CC3)C(F)(F)F)ncn12 (stereo not drawn)
5. Cc1cc(OC2CCC2)nc2c(C(=O)NC(C3CC3)C3CC3)ncn12
6. COCc1cc(-c2cc(F)cc(F)c2)nc2c(C(=O)N[C@@H](C)C3CC3)ncn12

Result string:
1. 10 to 20%
2. < 10%
3. > 20%
4. > 20%
5. 10 to 20%
6. 10 to 20%

Measured values drawn from patent US9920061B2 for this set.
